// provenance: patent US5670520A

# runDescription: MTT cell viability of MRC5 cells
# Type: cell-based
# measurementParameters: human, mrc5 cells, vesnarinone 15.5 μg/ml alone; read-out: MTT Cell Viability (% of control)

{"compoundStructure": "COc1ccc(C(=O)N2CCN(c3ccc4c(c3)CCC(=O)N4)CC2)cc1OC", "viability": "98%"}
